B1: OR4K15 (parent)
chain: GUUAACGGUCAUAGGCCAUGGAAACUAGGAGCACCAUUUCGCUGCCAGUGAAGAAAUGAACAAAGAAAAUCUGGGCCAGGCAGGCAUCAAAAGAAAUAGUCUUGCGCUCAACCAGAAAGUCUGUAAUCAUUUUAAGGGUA

variants of: B1; assay: self-cleavage, relative activity (ratio to wild type); higher = more cleavage; in vitro, sequencing; the parent is a self-cleaving ribozyme
Record form. Attribute: self-cleavage. Fill in for each entry.
Returns: the value as a bare number; no unit string appended.

Which self-cleavage is listed for U39C G50A ?
1.2

Which self-cleavage is listed for U39C U120A ?
2.52

Which self-cleavage is listed for A89G U132C ?
1.4

Which self-cleavage is listed for A33G A82U ?
0.1

Which self-cleavage is listed for A82C A114U ?
0.02

Which self-cleavage is listed for A47C A68G ?
0.55

Which self-cleavage is listed for A118G A134U ?
1.03

Which self-cleavage is listed for A67G G137U ?
2.03

Which self-cleavage is listed for A78G U132C ?
0.12

Which self-cleavage is listed for U38C A90C ?
1.62

Which self-cleavage is listed for A67G C107U ?
0.01

Which self-cleavage is listed for A63G A68C ?
2.21

Which self-cleavage is listed for U38C C105A ?
0.05

Which self-cleavage is listed for U38C C61A ?
0.99

Which self-cleavage is listed for U2C A140U ?
1.55

Which self-cleavage is listed for `G99A` ?
0.56

Which self-cleavage is listed for A90U A126U ?
0.98

Which self-cleavage is listed for U102A A117G ?
1.12

Which self-cleavage is listed for U2A A51G ?
0.51

Which self-cleavage is listed for A4G A89G ?
1.34

Which self-cleavage is listed for A13G A125U ?
0.88

Which self-cleavage is listed for A59G A125G ?
0.4

Which self-cleavage is listed for G15A A36U ?
1.01

Which self-cleavage is listed for U43G A51U ?
2.16

Which self-cleavage is listed for A91C A96G ?
1.39

Which self-cleavage is listed for A36C U87C ?
1.04

Which self-cleavage is listed for A59U A117G ?
1.72

Which self-cleavage is listed for A11G U26C ?
1.27

Which self-cleavage is listed for A22G U39A ?
1.39

Which self-cleavage is listed for A23C U130C ?
0.85

Which self-cleavage is listed for U12A A91U ?
1.64

Which self-cleavage is listed for G65A U130C ?
0.71

Which self-cleavage is listed for A56G A68C ?
2.25

Which self-cleavage is listed for A33G A125U ?
1.17

Which self-cleavage is listed for U39C A86U ?
2.13

Which self-cleavage is listed for A96G A129G ?
1.11

Which self-cleavage is listed for U122C G138U ?
1.37

Which self-cleavage is listed for A68G A90U ?
1.58

Which self-cleavage is listed for A56G A66G ?
0.93

Which self-cleavage is listed for C10A A86G ?
0.31

Which self-cleavage is listed for A55G U57G ?
1.41

Which self-cleavage is listed for A30G A56U ?
1.02

Which self-cleavage is listed for A62U G75A ?
0.06

Which self-cleavage is listed for A89U U130C ?
1.2

Which self-cleavage is listed for U39A U87C ?
1.53

Which self-cleavage is listed for `G75C` ?
0.17

Which self-cleavage is listed for A23G G48U ?
0.73

Which self-cleavage is listed for A54G A95G ?
1.81

Which self-cleavage is listed for A23G G119A ?
1.38

Which self-cleavage is listed for G79U U102C ?
0.06

Which self-cleavage is listed for A18U A126G ?
1.86

Which self-cleavage is listed for A47G A110U ?
1.15

Which self-cleavage is listed for A68G A82C ?
0.2

Which self-cleavage is listed for A18G A96C ?
1.68

Which self-cleavage is listed for G14C A30G ?
1.66

Which self-cleavage is listed for U43A U132A ?
1.41

Which self-cleavage is listed for A5U A140G ?
1.09

Which self-cleavage is listed for U12C C45U ?
1.85

Which self-cleavage is listed for U12A A54U ?
1.28

Which self-cleavage is listed for A4G A36U ?
0.79

Which self-cleavage is listed for A64U A69G ?
1.86

Which self-cleavage is listed for C35U U122A ?
1.26

Which self-cleavage is listed for A63U A126G ?
1.31

Which self-cleavage is listed for `C107G` ?
0.02

Which self-cleavage is listed for A33G A117U ?
0.74

Values compiled from the RNAGym collection of RNA variant scans (doi:10.7554/elife.90254).
